pIC50: −log10 of the molar value.
Field pIC50: reported value for Muscarinic acetylcholine receptor M3 (Homo sapiens, UniProt P20309); entries drawn from several documents.

# compound, property_label, result
rows = [
    ("CC(C)=CCn1c(N2CCC[C@H](N)C2)nc2c1c(=O)n(CC(=O)c1ccccc1)c(=O)n2C", "pIC50", 6.82),
    ("COc1ccc([C@H](Cc2c(Cl)c[n+]([O-])cc2Cl)OC(=O)c2ccc(CNC(CO)(C(=O)OC[C@@H]3CCN(C)C3)c3ccccc3)s2)cc1OC (some centres not stated)", "pIC50", "> 9.00"),
    ("O=C(Nc1ccccc1)N1CCCC(c2ccccc2)(C2CCN(Cc3ccc(Br)cc3)CC2)C1 (single isomer, unassigned; (-))", "pIC50", "< 5.00"),
    ("O=C1CCC(c2ccc(F)cc2F)(C2CCN(Cc3ccc(Br)cc3)CC2)C(=O)N1 (single isomer, unassigned; (-))", "pIC50", "< 5.00"),
    ("COc1cc(NC(=O)CCN2CCC(OC(=O)Nc3ccccc3-c3ccccc3)CC2)c(Cl)cc1CNC[C@H](O)c1ccc(O)c2[nH]c(=O)ccc12", "pIC50", 8.80),
    ("O=C(Nc1ccc2[nH]cc(C3CCN(CCCCCCCN4CCC(c5c[nH]c6ccc(NC(=O)c7ccc(F)cc7)cc56)CC4)CC3)c2c1)c1ccc(F)cc1", "pIC50", "< 4.30"),
]

For the compound `COc1cc(NC(=O)c2ccc(-c3ccc(Cl)cc3)o2)cc(OC)c1` , the measured pIC50 on Muscarinic acetylcholine receptor M3 (Homo sapiens, UniProt P20309) was < 5.00

* * *

Field IC50: reported value for UniProtKB P20309; entries drawn from several documents.

Some compounds with known IC50 results, for comparison:
# compound, result
rows = [
    ("NC(=O)CN1CCCC(c2ccccc2)(C2CCN(Cc3ccc(Br)cc3)CC2)C1 (single isomer, unassigned; (-))", "1.1 µM"),
    ("N=C(Nc1ccc2c(c1)CCN2C1CCNCC1)c1cccs1", "4.5 µM"),
    ("O=C1CCC(c2ccccc2)(C2CCN(Cc3ccc(Br)cc3)CC2)C(=O)N1 (stereo in doubt; (-)-1a)", "> 10 µM"),
    ("CC(C)c1ncc(C(=O)N2CCOC3(CCN(Cc4ccc(F)c(CCNC[C@H](O)c5ccc(O)c6[nH]c(=O)sc56)c4)CC3)C2)s1", "0.00158 µM"),
]

IC50 measured on CCCCCCCCCCCCCCCC(OC(=O)C(CCCCN(O)C(C)=O)NC(=O)c1coc(-c2ccccc2O)n1)C(C)C(=O)NC1CCCCN(O)C1=O (stereo not given) = 6.29 µM
